B1: TRIM55 (parent)
chain: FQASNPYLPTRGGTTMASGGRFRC

- Variants of: B1
- test_protocol: protein stability index of a GFP-peptide fusion (GPS, HEK-293T) (PSI 1-6); higher = more stable;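 further: lentivirally expressed fusions sorted by FACS into six bins by GFP to DsRed ratio, PSI derived from sequencing read proportions per bin multiplied by bin number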
- measurement_conditions: c terminus: a fixed tail appended
Label rule, in plain words: protein stability index of 2 and up is Met, under 2 is Not met.

T15W    Not met
L8H    Not met
Q2R    Met
G13D    Not met
C24N    Met

q: Answer whether protein stability index of F1K is greater than or equal to 2.
a: Met

q: Please tell me: is the variant G20S at or over 2 in terms of protein stability index?
a: Not met

q: Say whether T10Q shows protein stability index of 2 or more.
a: Not met

q: Could you tell me if the measured protein stability index of R23V reaches 2 or more?
a: Not met

q: Check this variant for protein stability index at or above 2: R23T
a: Not met

q: Given the entry S18P , answer whether its protein stability index meets or surpasses 2.
a: Not met

q: Hi team, for S18Y , is the recorded protein stability index at or above 2?
a: Met

q: Say whether M16W shows protein stability index of 2 or more.
a: Not met

q: Dear colleague, could you confirm whether P6H has protein stability index at or above 2?
a: Met

q: # check: protein stability index of P6Q is greater than or equal to 2
a: Met

q: Could you please find out whether T10K has protein stability index that meets 2 or exceeds it?
a: Not met
